- target: 3-hydroxyacyl-CoA dehydrogenase type-2 (Homo sapiens)
- protocol-summary: qHTS Assay for Inhibitors of HSD17B4, hydroxysteroid (17-beta) dehydrogenase 4; also: potency is read from the fitted curve at half-maximal effect;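 also: the protocol describes HADH2 (HSD17B10) and not the HSD17B4 of the title; nearly all actives have a fitted effect of over 70% in size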
- assay-setup: recombinant HSD17B10, NADH fluorescence kinetic; series mostly up to 57.1 µM
- Experimental: Assay Overview: NIH Molecular Libraries Screening Centers Network [MLSCN] NIH Chemical Genomics Center [NCGC] Structural Genomics Consortium [SGC] […] An increase in the fluorescence intensity due to conversion of NAD+ to NADH was used to measure the enzyme activity. Assay Protocol: Buffer: 100 mM Tris-HCl pH 9.0, containing 0.01 % Tween-20. […] The fluorescence intensity difference between the last and the first time points was used to compute reaction progress.
Among all 75,000 compounds or so, about 5,700 (7.6%) were called active. Roughly 7% stayed inconclusive and do not appear here. The full list was thinned out, with actives kept by preference.
measured-endpoint: Potency

compound	target	Potency
CCC(C)C(=O)O[C@@H]1C[C@@]2(C)C(c3ccoc3)OC(=O)CC23OC2(C)O[C@@]14[C@@]1(C)C(CC(=O)OC)C5(C)CC1(O)C(O)(C5OC(=O)C1(C)OC1C)C(OC(C)=O)[C@@]34O2 (some centres not stated)	3-hydroxyacyl-CoA dehydrogenase type-2 (Homo sapiens)	inactive
ClC(Cl)=C(Cl)C(Cl)=C(Cl)Cl	3-hydroxyacyl-CoA dehydrogenase type-2 (Homo sapiens)	inactive
O=C1C2(Cl)C3(Cl)C4(Cl)C(Cl)(Cl)C5(Cl)C3(Cl)C1(Cl)C5(Cl)C24Cl (configuration not stated)	3-hydroxyacyl-CoA dehydrogenase type-2 (Homo sapiens)	inactive
CC[C@@](O)(C(=O)O)c1cc2n(c(=O)c1CO)Cc1cc3ccccc3nc1-2	3-hydroxyacyl-CoA dehydrogenase type-2 (Homo sapiens)	3.16 µM (active)
c1ccc(CCCCN2CCC(c3ccccc3)CC2)cc1	3-hydroxyacyl-CoA dehydrogenase type-2 (Homo sapiens)	inactive

Problem: Request the reported Potency associated with CN1[C@@H]2CC[C@H]1CC(NC(=O)c1nn(C)c3ccccc13)C2 (some centres not stated)
Solution: 20 µM (active)

Problem: Quick check: Potency of O=C(NCC(c1cccnc1)N1CCN(c2ccccc2)CC1)Oc1ccccc1 (configuration not stated) ?
Solution: inactive

Problem: Which Potency value is on record for "CC(C)(Cc1c[nH]c2ccc(Cl)cc12)NCCOc1ccccc1OCC1CC1" ?
Solution: inactive

Problem: Look up Potency for this compound: COc1cc2c(cc1OC)[C@@H]1C(=O)c3ccc(O)c(CC=C(C)C)c3OC1CO2 (some centres not stated)
Solution: inactive

Problem: Entry under review: "N#Cc1c(Cl)c(Cl)c(Cl)c(C#N)c1Cl" . Reported Potency?
Solution: inactive

Problem: Could you tell me which Potency is on file for "NCC[Se][Se]CCN" ?
Solution: 0.794 µM (active)
